System: C-33-A (Cervical Carcinoma)
Assay: combination Emax (second highest fraction inhibited in the dose matrix, 72 h); higher = more inhibition; extreme values may be limits of the assay
Kind request: treat 0.5 as inclusive, so combination Emax at 0.5 or higher is class 1, anything lower is class 0.

Query block: Would you say N#Cc1cnc(Nc2cc(NC[C@H]3CNCCO3)c(C(F)(F)F)cn2)cn1 [SRA737] + CCc1c2c(nc3ccc(O)cc13)-c1cc3c(c(=O)n1C2)COC(=O)[C@]3(O)CC [SN-38] (first compound max 10 µM, 7x7, partner max 0.3 µM) shows combination Emax at minimum 0.5?
Result block: class 1

Query block: Form field: combination Emax at least 0.5? Entry: CN(CCO)CC[C@H](CSc1ccccc1)Nc1ccc(S(=O)(=O)NC(=O)c2ccc(N3CCC([C@@H](O)c4ccccc4-c4ccc(Cl)cc4)CC3)cc2)cc1S(=O)(=O)C(F)(F)F [AZD4320] + Cc1cc2ncnn2cc1Nc1ncc2c(n1)n(C1CCOCC1)c(=O)n2C [AZD7648] (first compound max 1 µM, 7x7, partner max 10 µM)
Result block: class 0

Query block: Confirm if combination Emax reported for the compound O=C(c1cc(Cc2n[nH]c(=O)c3ccccc23)ccc1F)N1CCN(C(=O)C2CC2)CC1 [Olaparib] + Cc1c2c(nn1C)CSCc1cc(n(C)n1)CSc1cc(c3ccccc3c1)OCCCc1c(C(=O)O)n(C)c3c-2c(Cl)ccc13 [AZD5991] (first compound max 10 µM, 7x7, partner max 1 µM) is 0.5 or above.
Result block: class 0

Query block: Is reported combination Emax greater than or equal to 0.5 here: O=C(c1cc(Cc2n[nH]c(=O)c3ccccc23)ccc1F)N1CCN(C(=O)C2CC2)CC1 [Olaparib] + COc1nnc2ccc(N3CCC(c4ccc(OCCN5CCN(C)C(=O)[C@H]5C)cc4)CC3)nn12 [AZD5153] (first compound max 10 µM, 7x7, partner max 1 µM)
Result block: class 0

Query block: Check if combination Emax >= 0.5 (inclusive). Item: COc1cccc(OCCCN)c1-c1cc(Nc2cnc(C#N)cn2)n[nH]1 [Prexasertib] + C[C@@H]1COCCN1C2=NC(=NC(=C2)C3(CC3)[S@](=N)(=O)C)C4=C5C=CNC5=NC=C4 [AZD6738] (first compound max 1 µM, 7x7, partner max 10 µM)
Result block: class 1

Query block: // inclusive: combination Emax at least 0.5? input: COc1nnc2ccc(N3CCC(c4ccc(OCCN5CCN(C)C(=O)[C@H]5C)cc4)CC3)nn12 [AZD5153] + Cn1cnc2c(F)c(Nc3ccc(Br)cc3Cl)c(C(=O)NOCCO)cc21 [Selumetinib] (first compound max 1 µM, 7x7, partner max 10 µM)
Result block: class 1

Query block: In plain terms: is recorded combination Emax at least 0.5 for CN(CCO)CC[C@H](CSc1ccccc1)Nc1ccc(S(=O)(=O)NC(=O)c2ccc(N3CCC([C@@H](O)c4ccccc4-c4ccc(Cl)cc4)CC3)cc2)cc1S(=O)(=O)C(F)(F)F [AZD4320] + Cn1cnc2c(F)c(Nc3ccc(Br)cc3Cl)c(C(=O)NOCCO)cc21 [Selumetinib] (first compound max 1 µM, 7x7, partner max 3 µM) ?
Result block: class 1
